Could you please report measured pKd for the items listed next?
- Target Desc: recombinant SARS-CoV-2 RBD with C-terminal AviTag (SARS-CoV-2, UniProt P0DTC2 319-541)
Answers are plain numbers, as −log10 of the molar value.

Known pKd results, listed for orientation:
# Binder, pKd
rows = [
    ("MBP-5HVZ-R5A-E5-H6 (VHH, not shown: large carriers; small tags and cut ends) VHH: QVQLVESGGGLVQPGGSLRLSCAASGYDFDILRMAWFRQAPGKEREMVAAITSAESVNYEDSVKGRFTISRDNAKNTVYLQMNSLKPEDTAVYYCATYDYTDDYGYASWGQGTQVTVSS", 7.51),
    ("MBP-5HVZ-R5A-D6-H6 (VHH, not shown: large carriers; small tags and cut ends) VHH: QVQLVESGGGLVQPGGSLRLSCAASGNDWYINSAHWYRQAPGKEREFVASVSRGGSNNYRDSVKGRFTISRDNAKNTVYLQMNSLKPEDTAVYYCAALLETSSGDYTYWGQGTQVTVSS", 7.46),
]

What value of measured pKd is listed for R5A-C5 (competition ELISA sample) (VHH) VHH: QVQLVESGGGLVQPGGSLRLSCAASGDIFSINALHWFRQAPGKQREEVAAITSGGSTGYADSVKGRFTISRDNAKNTVYLQMNSLKPEDTAVYYCAAQQARGGLDSDYWGQGTQVTVSS ?
8.15
